studyTarget: T1, CS1-Fc (human, UniProt Q9NQ25 23-226)
T1 construct: also called recombinant human CS1-Fc; CS1-Fc polypeptide; not shown: Fc portion of CS1-Fc
T1 sequence: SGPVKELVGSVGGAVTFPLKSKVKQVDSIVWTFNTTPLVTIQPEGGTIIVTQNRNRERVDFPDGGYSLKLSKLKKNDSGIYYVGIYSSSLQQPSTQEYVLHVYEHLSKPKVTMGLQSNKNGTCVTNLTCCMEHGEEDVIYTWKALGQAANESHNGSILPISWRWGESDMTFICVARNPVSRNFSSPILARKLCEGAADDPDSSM
assayComment: SPR (Biacore), adapter protein DD-GS linker-Q26, CS1-Fc target
valueKind: Kd (nM)

Recorded Kd, per entry:
CS1DD020-P26(Q26) Adapter (designed binder, Monovalent Adapter: CS1DD020 D domain, GS linker, AFP p26 (Q26); The SPR sentence names only the format DD-GS linker-Q26; also called monovalent CS1DD020-P26(Q26); C1DD020 adapter protein of the format DD-GS linker-Q26) MGSWDEFNQRLGAIEERLQALGGSEAELAALEKEIAAFESELQAYKGKGNPEVEFLRWYADGIRWELQAYRHNGGGGDGGGGSGGGGSGQESQALAKRSCGLFQKLGEYYLQNAFLVAYTKKAPQLTSSELMAITRKMAATAATCCQLSEDKLLACGEGAADIIIGHLCIRHEMTPVNPGVGQCCTSSYANRRPCFSSLVVDETYVPPAFSDDKFIFHKDLCQAQGVALQTMKQEFLINLVKQKPQITEEQLEAVIADFSGLLEKCCQGQEQEVCFAEEGQKLISKTRAALGV	18
CS1DD018 adapter protein of the format DD-GS linker-Q26 (designed binder) MGSWDEFNQRLGAFEERLQALGGSEAELAAFEKEIAAFESELQAYKGKGNPEVEFLRWYADGIRWELQAYRHNGGGGDGGGGSGGGGSGQESQALAKRSCGLFQKLGEYYLQNAFLVAYTKKAPQLTSSELMAITRKMAATAATCCQLSEDKLLACGEGAADIIIGHLCIRHEMTPVNPGVGQCCTSSYANRRPCFSSLVVDETYVPPAFSDDKFIFHKDLCQAQGVALQTMKQEFLINLVKQKPQITEEQLEAVIADFSGLLEKCCQGQEQEVCFAEEGQKLISKTRAALGV	40
CS1DD006-P26(Q26) Adapter (designed binder, Monovalent Adapter: CS1DD006 D domain, GS linker, AFP p26 (Q26); The SPR sentence names only the format DD-GS linker-Q26; also called monovalent CS1DD006-P26(Q26); CS1DD006 adapter protein of the format DD-GS linker-Q26) MGSWAEFFTRLDAIWERLEGLGGSEAELAAFEKEIAAFESELQAYKGKGYPEVETLKFHAAGIRQKLQAYRHNGGGGDGGGGSGGGGSGQESQALAKRSCGLFQKLGEYYLQNAFLVAYTKKAPQLTSSELMAITRKMAATAATCCQLSEDKLLACGEGAADIIIGHLCIRHEMTPVNPGVGQCCTSSYANRRPCFSSLVVDETYVPPAFSDDKFIFHKDLCQAQGVALQTMKQEFLINLVKQKPQITEEQLEAVIADFSGLLEKCCQGQEQEVCFAEEGQKLISKTRAALGV	38

a = CS1DD021 adapter protein of the format DD-GS linker-Q26 (designed binder) MGSWDEFNQRLGAFEERLQALGGSEAELAALEKEIAAFESELQAYKGKGNPEVEFLRWYADGIRWELQAYRHN
b = CS1DD007 adapter protein of the format DD-GS linker-Q26 (designed binder) MGSWAEFFTRLDAIWERLEGLGGSEAELAALEKEIAAFESELQAYKGKGYPEVETLKFHAAGIRQKLQAYRHN
Of a and b , which one carries the higher reported Kd? The response must carry the label of the picked entry.
b
(b: 23 nM, a: 16 nM)
